Tested on: human IgG
assay-method-text: SPR kinetic analysis of binding between synthetic peptides and human IgG
test-context: biotinylated peptide immobilized on sensor chip SA, human IgG as analyte, 25° C.
Positions of bridges follow the written chain, without caps; N, C: chain ends. Residues, ends and D or L forms follow the SMILES beside them. *: point of attachment. Biotin = O=C1N[C@H]2[C@H](CS[C@H]2CCCCC(=O)*)N1; Ahx = NCCCCCC(=O)O
observable: dissociation rate constants (kd) (s⁻¹)
Value expressed in s⁻¹; do not type the unit.

Some entries whose results are on file:
compound	endpoint-unit	value-reported
CC(C)C[C@@H]1NC(=O)CNC(=O)[C@H](Cc2c[nH]c3ccccc23)NC(=O)[C@H](CCC(N)=O)NC(=O)[C@H](CO)NC(=O)[C@H](CCCNC(=N)N)NC(=O)[C@H](Cc2c[nH]c3ccccc23)NC(=O)[C@H](Cc2ccc(O)cc2)NC(=O)CNC(=O)[C@@H](NC(=O)CNC(=O)CCCCCNC(=O)CCCC[C@@H]2SC[C@@H]3NC(=O)N[C@@H]32)CSSC[C@@H](C(=O)NCC(=O)O)NC1=O [IMGpep-1E6Q] ({Biotin-Ahx}-GCGYWRSQWGLCG-OH; disulfide 2-12)	s⁻¹	0.00031
CC(C)C[C@@H]1NC(=O)CNC(=O)[C@H](Cc2c[nH]c3ccccc23)NC(=O)[C@H](CCC(=O)O)NC(=O)[C@H](CO)NC(=O)[C@H](CCCNC(=N)N)NC(=O)[C@H](Cc2c[nH]c3ccccc23)NC(=O)[C@H](Cc2ccc(O)cc2)NC(=O)CNC(=O)[C@@H](NC(=O)CNC(=O)CCCCCNC(=O)CCCC[C@@H]2SC[C@@H]3NC(=O)N[C@@H]32)CSSC[C@@H](C(=O)NCC(=O)O)NC1=O [IMGpep-1] ({Biotin-Ahx}-GCGYWRSEWGLCG-OH; disulfide 2-12)	s⁻¹	0.00034
CC(C)C[C@@H]1NC(=O)CNC(=O)[C@H](Cc2c[nH]c3ccccc23)NC(=O)[C@H](C)NC(=O)[C@H](CCCCN)NC(=O)[C@@H]2CCCN2C(=O)[C@H](Cc2c[nH]c3ccccc23)NC(=O)[C@H](Cc2ccc(O)cc2)NC(=O)CNC(=O)[C@H]([C@@H](C)O)NC(=O)[C@@H](NC(=O)CNC(=O)CCCCCNC(=O)CCCC[C@@H]2SC[C@@H]3NC(=O)N[C@@H]32)CSSC[C@@H](C(=O)NCC(=O)O)NC1=O [IMGpep-4] ({Biotin-Ahx}-GCTGYWPKAWGLCG-OH; disulfide 2-13)	s⁻¹	0.00041

Let's switch to this compound now.
Here CC(C)C[C@@H]1NC(=O)CNC(=O)[C@H](Cc2c[nH]c3ccccc23)NC(=O)[C@H](C)NC(=O)[C@H](CCCNC(=N)N)NC(=O)[C@@H]2CCCN2C(=O)[C@H](Cc2c[nH]c3ccccc23)NC(=O)[C@H](Cc2ccc(O)cc2)NC(=O)CNC(=O)[C@H]([C@@H](C)O)NC(=O)[C@@H](NC(=O)CNC(=O)CCCCCNC(=O)CCCC[C@@H]2SC[C@@H]3NC(=O)N[C@@H]32)CSSC[C@@H](C(=O)NCC(=O)O)NC1=O was tested on human IgG, and its dissociation rate constants (kd) came to 0.00038

* * *

Test system: human IgG isotypes (hIgG1 to hIgG4)
assay-method-text: ELISA assay of biotinylated synthetic peptides on human IgG isotypes
Type: binding
test-context: FIG. 7
Positions of bridges follow the written chain, without caps; N, C: chain ends. Residues, ends and D or L forms follow the SMILES beside them. *: point of attachment. Biotin = O=C1N[C@H]2[C@H](CS[C@H]2CCCCC(=O)*)N1; Ahx = NCCCCCC(=O)O
observable: binding activity to human IgG1, IgG2, IgG3, and IgG4

molecule	value-reported
CC(C)C[C@@H]1NC(=O)CNC(=O)[C@H](Cc2c[nH]c3ccccc23)NC(=O)[C@H](C)NC(=O)[C@H](CCCCN)NC(=O)[C@@H]2CCCN2C(=O)[C@H](Cc2c[nH]c3ccccc23)NC(=O)[C@H](Cc2ccc(O)cc2)NC(=O)CNC(=O)[C@H]([C@@H](C)O)NC(=O)[C@@H](NC(=O)CNC(=O)CCCCCNC(=O)CCCC[C@@H]2SC[C@@H]3NC(=O)N[C@@H]32)CSSC[C@@H](C(=O)NCC(=O)O)NC1=O [IMGpep-4] ({Biotin-Ahx}-GCTGYWPKAWGLCG-OH; disulfide 2-13)	strong binding activity
CC(C)C[C@@H]1NC(=O)CNC(=O)[C@H](Cc2c[nH]c3ccccc23)NC(=O)[C@H](CCC(=O)O)NC(=O)[C@H](CO)NC(=O)[C@H](CCCNC(=N)N)NC(=O)[C@H](Cc2c[nH]c3ccccc23)NC(=O)[C@H](Cc2ccc(O)cc2)NC(=O)CNC(=O)[C@@H](NC(=O)CNC(=O)CCCCCNC(=O)CCCC[C@@H]2SC[C@@H]3NC(=O)N[C@@H]32)CSSC[C@@H](C(=O)NCC(=O)O)NC1=O [IMGpep-1] ({Biotin-Ahx}-GCGYWRSEWGLCG-OH; disulfide 2-12)	strong binding activity
CC(C)C[C@@H]1NC(=O)CNC(=O)[C@H](Cc2c[nH]c3ccccc23)NC(=O)[C@H](CCC(N)=O)NC(=O)[C@H](CO)NC(=O)[C@H](CCCNC(=N)N)NC(=O)[C@H](Cc2c[nH]c3ccccc23)NC(=O)[C@H](Cc2ccc(O)cc2)NC(=O)CNC(=O)[C@@H](NC(=O)CNC(=O)CCCCCNC(=O)CCCC[C@@H]2SC[C@@H]3NC(=O)N[C@@H]32)CSSC[C@@H](C(=O)NCC(=O)O)NC1=O [IMGpep-1E6Q] ({Biotin-Ahx}-GCGYWRSQWGLCG-OH; disulfide 2-12)	strong binding activity
CC(C)C[C@@H]1NC(=O)CNC(=O)[C@H](Cc2c[nH]c3ccccc23)NC(=O)[C@H](C)NC(=O)[C@H](CCCNC(=N)N)NC(=O)[C@@H]2CCCN2C(=O)[C@H](Cc2c[nH]c3ccccc23)NC(=O)[C@H](Cc2ccc(O)cc2)NC(=O)CNC(=O)[C@H]([C@@H](C)O)NC(=O)[C@@H](NC(=O)CNC(=O)CCCCCNC(=O)CCCC[C@@H]2SC[C@@H]3NC(=O)N[C@@H]32)CSSC[C@@H](C(=O)NCC(=O)O)NC1=O	strong binding activity
